# test.conditions: 318.15 K; 101.33 kPa; Liquid; Vibrating tube method
measurement.type: mass density (kg/m3)
Please respond with the number in kg/m3 and leave the unit unwritten.

mass density measured on CCCC[P+](C)(CCCC)CCCC.O=C[O-] [tributylmethylphosphonium formate] = 939.2

mass density measured on C[S+](C)[O-] [dimethyl sulfoxide] = 1075.32

mass density measured on CC(=O)[O-].CCn1cc[n+](C)c1 [1-ethyl-3-methylimidazolium acetate] = 1085.52

mass density measured on CCC[N+]1(C)CCCC1.N#CN=C=[N-] [1-methyl-1-propylpyrrolidinium dicyanamide] = 1015.41

====

Kindly supply the reported mass density values for the records listed here.
# test.conditions: 323.15 K; 101.33 kPa; Liquid; Vibrating tube method
Please respond with the number in kg/m3 and leave the unit unwritten.

mass density measured on CC(=O)[O-].CCn1cc[n+](C)c1 [1-ethyl-3-methylimidazolium acetate] = 1082.49

mass density measured on CCC[N+]1(C)CCCC1.N#CN=C=[N-] [1-methyl-1-propylpyrrolidinium dicyanamide] = 1012.62

mass density measured on C[S+](C)[O-] [dimethyl sulfoxide] = 1070.31

mass density measured on CCCC[P+](C)(CCCC)CCCC.O=C[O-] [tributylmethylphosphonium formate] = 936.3

====

# test.conditions: 328.15 K; 101.33 kPa; Liquid; Vibrating tube method
Numbers after ± are expanded uncertainties.
measurement.type: mass density

mass density measured on CCCC[P+](C)(CCCC)CCCC.O=C[O-] [tributylmethylphosphonium formate] = 933.5 ± 5.8 kg/m3

mass density measured on CC(=O)[O-].CCn1cc[n+](C)c1 [1-ethyl-3-methylimidazolium acetate] = 1079.48 ± 6.8 kg/m3

mass density measured on C[S+](C)[O-] [dimethyl sulfoxide] = 1065.29 ± 6.4 kg/m3

mass density measured on CCC[N+]1(C)CCCC1.N#CN=C=[N-] [1-methyl-1-propylpyrrolidinium dicyanamide] = 1009.85 ± 6.1 kg/m3

====

# test.conditions: 298.15 K; 101.33 kPa; Liquid; Vibrating tube method
Numbers after ± are expanded uncertainties.
measurement.type: mass density

mass density measured on CC(=O)[O-].CCn1cc[n+](C)c1 [1-ethyl-3-methylimidazolium acetate] = 1097.83 ± 6.9 kg/m3

mass density measured on C[S+](C)[O-] [dimethyl sulfoxide] = 1095.41 ± 6.6 kg/m3

mass density measured on CCC[N+]1(C)CCCC1.N#CN=C=[N-] [1-methyl-1-propylpyrrolidinium dicyanamide] = 1026.76 ± 6.2 kg/m3

mass density measured on CCCC[P+](C)(CCCC)CCCC.O=C[O-] [tributylmethylphosphonium formate] = 950.7 ± 5.9 kg/m3

====

# test.conditions: 308.15 K; 101.33 kPa; Liquid; Vibrating tube method
measurement.type: mass density (kg/m3)
Please respond with the number in kg/m3 and leave the unit unwritten.

mass density measured on CC(=O)[O-].CCn1cc[n+](C)c1 [1-ethyl-3-methylimidazolium acetate] = 1091.64

mass density measured on CCC[N+]1(C)CCCC1.N#CN=C=[N-] [1-methyl-1-propylpyrrolidinium dicyanamide] = 1021.05

mass density measured on CCCC[P+](C)(CCCC)CCCC.O=C[O-] [tributylmethylphosphonium formate] = 945

mass density measured on C[S+](C)[O-] [dimethyl sulfoxide] = 1085.36

====

# test.conditions: 313.15 K; 101.33 kPa; Liquid; Vibrating tube method
measurement.type: mass density (kg/m3)
Please respond with the number in kg/m3 and leave the unit unwritten.

mass density measured on C[S+](C)[O-] [dimethyl sulfoxide] = 1080.34

mass density measured on CCC[N+]1(C)CCCC1.N#CN=C=[N-] [1-methyl-1-propylpyrrolidinium dicyanamide] = 1018.22

mass density measured on CC(=O)[O-].CCn1cc[n+](C)c1 [1-ethyl-3-methylimidazolium acetate] = 1088.57

mass density measured on CCCC[P+](C)(CCCC)CCCC.O=C[O-] [tributylmethylphosphonium formate] = 942.1
